From: ChEMBL document CHEMBL1201862

experiment: cytotoxicity toward DRD oncogenic fibroblasts, dose response, cell-based, non-viral oncogenic, luminescence (AID 1934); assay type: functional; conditions: Homo sapiens
The source made the active and inactive calls. Cut-off read from the data, not from the text of the source: actives have a measured EC50 and inactives only a lower limit.
Form field: EC50 (one value per entry).

# count of solved cases: 3
1) CCCC(=O)NC(c1ccc(N(C)C)cc1)c1ccc2cccnc2c1O (centres undefined) = 2.54 µM (active)
2) O=C(NC1=C(NC2CCS(=O)(=O)C2)C(=O)c2ccccc2C1=O)c1ccccc1 (centres undefined) = 14.6 µM (active)
3) O=S(=O)(c1ccc2c(c1)OCCO2)N1CCN(c2ncnc3sccc23)CC1 = > 150 µM (not active)

# ---- query compound ----
# EC50 lookup, item CCO/C(O)=C1/C(C)=NC(SC)=C(C#N)C1CC(C)C (centres undefined)
2.97 µM (active)
